Value source: paper PMC2950884

Recorded log10(Kd1 (first binding event)) for the following binders
Target: four heptad repeat Ser2P CTD peptide
Assay: fluorescence polarisation
metric: log10(Kd1 (first binding event)) (log10 of the value in µM)

1. Rtt103(E115R)-CID (domain or fragment) MPFSSEQFTTKLNTLEDSQESISSASKWLLLQYRDAPKVAEMWKEYMLRPSVNTRRKLLGLYLMNHVVQQAKGQKIIQFQDSFGKVAAEVLGRINQEFPRDLKKKLSRVVNILKRRNIFSKQVVNDIERSL :: 0.26
2. Pcf11(D117A)-CID (domain or fragment) DTEVIVKDFNSILEELTFNSRPIITTLTKLAEENISCAQYFVDAIESRIEKCMPKQKLYAFYALDSICKNVGSPYTIYFSRNLFNLYKRTYLLVDNTTRTKLINMFKLWLNPNATGLPLFEGSALEKIEQFLIKAS :: 1.60
3. Rtt103 CTD-interacting domain (residues 1-131) (domain or fragment) MPFSSEQFTTKLNTLEDSQESISSASKWLLLQYRDAPKVAEMWKEYMLRPSVNTRRKLLGLYLMNHVVQQAKGQKIIQFQDSFGKVAAEVLGRINQEFPRDLKKKLSRVVNILKERNIFSKQVVNDIERSL :: 0.48
4. Pcf11(D117K)-CID (domain or fragment) DTEVIVKDFNSILEELTFNSRPIITTLTKLAEENISCAQYFVDAIESRIEKCMPKQKLYAFYALDSICKNVGSPYTIYFSRNLFNLYKRTYLLVDNTTRTKLINMFKLWLNPNKTGLPLFEGSALEKIEQFLIKAS :: 1.48
5. Pcf11 CTD-interacting domain (domain or fragment, S. cerevisiae, UniProt P39081 4-139, looked up) DTEVIVKDFNSILEELTFNSRPIITTLTKLAEENISCAQYFVDAIESRIEKCMPKQKLYAFYALDSICKNVGSPYTIYFSRNLFNLYKRTYLLVDNTTRTKLINMFKLWLNPNDTGLPLFEGSALEKIEQFLIKAS :: 1.70
